Source listed as patent US20250171459A1.

Kindly state IC50 for each of the entries shown.
assayedTarget: APOL1 (Homo sapiens, UniProt O14791)
Sequence (O14791 1-398 S342G/I384M): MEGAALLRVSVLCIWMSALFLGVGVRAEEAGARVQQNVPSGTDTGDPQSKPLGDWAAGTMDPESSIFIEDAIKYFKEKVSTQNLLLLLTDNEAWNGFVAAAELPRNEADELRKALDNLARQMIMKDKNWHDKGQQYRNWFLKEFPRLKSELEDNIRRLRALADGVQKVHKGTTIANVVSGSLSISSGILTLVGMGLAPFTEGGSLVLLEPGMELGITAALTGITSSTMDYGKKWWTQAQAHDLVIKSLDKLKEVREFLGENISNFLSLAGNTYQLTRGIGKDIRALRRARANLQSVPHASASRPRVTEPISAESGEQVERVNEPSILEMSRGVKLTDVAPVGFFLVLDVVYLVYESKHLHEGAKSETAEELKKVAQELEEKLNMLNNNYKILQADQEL
measurementProtocol: MultiTox-Fluor Multiplex Cytotoxicity Assay in tet-inducible APOL1 T-REx-HEK293 cells (cell rescue, ratio of dead to live cells)
recordedConditions: tet-inducible transgenic APOL1 T-REx-HEK293 cell lines, 50 ng/mL tet, 24 hours; read-out: IP50 (i.e., IC50 for cell proliferation)

# count of solved cases: 5
{"columns": ["molecule", "IC50"],
 "data": [
  ["C[C@H]1C[C@@]2(CCN1Cc1cnn(CCS(C)(=O)=O)c1)OCC(O)c1c2sc(Cl)c1Cl (stereo partly shown) [Compound 861]", "100 to 500 nM"],
  ["CCc1cc2c(s1)CCO[C@@]21CCN(C[C@H]2C[C@@H](NS(=O)(=O)C3COC3)C2)[C@@H](C)C1", "< 100 nM"],
  ["C[C@H]1C[C@@]2(CCN1Cc1cnn(CCS(C)(=O)=O)c1)OCC(O)c1cc(C(F)(F)C(F)F)sc12 (stereo partly shown) [Compound 1012]", "< 100 nM"],
  ["CCc1cc2c(s1)CCO[C@@]21CCN(CC2CN(C(=O)C(C)S(C)(=O)=O)C2)[C@@H](C)C1 (stereo partly shown)", "< 100 nM"],
  ["C[C@H]1C[C@@]2(CCN1Cc1cnn(CCS(C)(=O)=O)c1)OCC(O)c1cc(Cl)sc12 (single isomer, unassigned) [Compound 769]", "< 100 nM"]
]}

Here are 6 molecules. What values of IC50 were reported for them?
1. CCc1cc2c(s1)CCO[C@@]21CCN(Cc2cn(C3CC4(C3)CS(=O)(=O)C4)nn2)[C@@H](C)C1
2. CCc1cc2c(s1)CCO[C@@]21CCN(C[C@H]2C[C@@H](NC(=O)c3ccc4[nH]nnc4c3)C2)[C@@H](C)C1
3. CCc1cc2c(s1)CCO[C@@]21CCN(CC2CN(C(=O)CCCOC)C2)[C@@H](C)C1
4. CCc1cc2c(s1)CCO[C@@]21CCN(Cc2cnc(N[C@@H](CO)[C@@H](C)O)nc2)[C@@H](C)C1
5. CCc1cc2c(s1)CCO[C@@]21CCN(Cc2ccc(N[C@H]3CC[C@H](O)C3)nc2)[C@@H](C)C1
6. CCc1cc2c(s1)CCO[C@@]21CCN(C[C@H]2C[C@@H](NC(=O)Oc3ccccc3F)C2)[C@@H](C)C1

Solution:
< 100 nM
< 100 nM
< 100 nM
< 100 nM
< 100 nM
500 to 1000 nM

Here are 4 molecules. What values of IC50 were reported for them?
1. CCc1cc2c(s1)CCO[C@@]21CCN(Cc2cn(C3(CO)CC3)nn2)[C@@H](C)C1
2. C[C@H]1CC2(CCN1Cc1cnn(C)c1)OC1CCCCC1c1cc(Cl)sc12 (stereo partly shown)
3. CCc1cc2c(s1)CCOC21CCN(Cc2cn(CCS(=O)(=O)C3CC3)nn2)CC1
4. C[C@H]1C[C@@]2(CCN1Cc1ccc(F)cn1)OCCc1c2sc(Cl)c1CO

Solution:
500 to 1000 nM
100 to 500 nM
500 to 1000 nM
500 to 1000 nM
